assay: in vitro; conditions: human
experimental_endpoint: CC50

(Q) For the compound "C=C(CC[C@]12O[C@H](C(=O)O)[C@@](O)(C(=O)O)[C@](C(=O)O)(O1)[C@H](OC(=O)/C=C/[C@@H](C)C[C@@H](C)CC)[C@H]2O)[C@@H](OC(C)=O)[C@H](C)Cc1ccccc1" , give its measured CC50 value.
(A) > 100 µM

----------
system: HCoV-229E; assay: microbe, parasite or virus in culture; format: cell-based, Homo sapiens sapiens; details: Huh-7.5/F-Luc cells, 8-step dose series, 48 hours at 33°C; read-out: IC50 against HCoV-229E
experimental_endpoint: IC50 (nM)
Expressed in nM, but write only the number.

(Q) State the measured IC50 (HCoV-229E) of Cc1cc(-c2nc3cc(F)ccc3s2)ccc1NC(=O)[C@@H](N)CCCCN [Phortress, reference compound]
(A) 230
